assay system: human orexin-2 receptor (Homo sapiens (Human), UniProt O43614)
Sequence (O43614 whole entry): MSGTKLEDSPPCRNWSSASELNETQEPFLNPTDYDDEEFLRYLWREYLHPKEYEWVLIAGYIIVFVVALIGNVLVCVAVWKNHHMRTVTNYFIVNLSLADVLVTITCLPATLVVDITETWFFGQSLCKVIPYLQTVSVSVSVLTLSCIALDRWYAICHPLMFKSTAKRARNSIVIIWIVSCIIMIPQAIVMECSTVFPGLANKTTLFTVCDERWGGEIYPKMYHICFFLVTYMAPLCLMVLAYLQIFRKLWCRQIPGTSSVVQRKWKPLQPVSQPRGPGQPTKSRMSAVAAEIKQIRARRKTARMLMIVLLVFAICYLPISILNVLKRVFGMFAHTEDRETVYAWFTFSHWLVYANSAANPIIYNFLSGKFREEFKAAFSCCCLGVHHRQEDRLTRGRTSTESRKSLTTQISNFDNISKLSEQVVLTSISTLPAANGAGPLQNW
test protocol: In vitro assay: intracellular calcium measurements (FLIPR), antagonistic activity
study conditions: CHO cells expressing human orexin-2 receptor, orexin-A agonist, geometric mean, read-out: IC50 Ox2
quantity kind: pIC50
Give bare numbers, as −log10 of the molar value.

Look at each molecule and report its pIC50.
1. C=C1C[C@@H](c2nc3ccc(OC)cc3[nH]2)N(C(=O)c2nc(C)sc2-c2ccc(F)cc2)C1 [Example 6.1]
2. Cc1cccc(-c2sc(C)nc2C(=O)N2CC[C@H](C)[C@H]2c2nc3c(Cl)cccc3[nH]2)c1 [Ex. 4.122]
3. CCc1ccc(-c2sc(C)nc2C(=O)N2CCC[C@H]2c2nc3ccc(SC)cc3[nH]2)cc1 [Ex. 1.42]

Output:
7.48
6.21
7.19

Task: Data request, read-out pIC50, for C=C1C[C@@H](c2nc3c(C)c(Cl)ccc3[nH]2)N(C(=O)c2nc(C)sc2-c2ccccc2)C1 [Ex. 6.41]
Output: 8.70
